# System: Human immunodeficiency virus 1
# experimental.details: Antiviral activity against HIV-1 harboring wild type integrase infected in human HOS cells pretreated with compound for 3 hrs by single-round HIV-1 infectivity assay
# Type: functional, organism-based
# experimental.parameters: Human immunodeficiency virus 1, HOS
Mark met only when EC50 stays strictly below 10 nM. Values equal to the cut-off are not met.

Below, 5 compounds whose answers are already recorded.
**Q:** Threshold test, EC50 < 10 nM: `NCCNc1c(C(=O)NCc2ccc(F)cc2F)c(=O)n(O)c2ncccc12`
**A:** not met

**Q:** Threshold test, EC50 < 10 nM: `Nc1ccc(-c2ccc(Nc3c(C(=O)NCc4ccc(F)cc4F)c(=O)n(O)c4ncccc34)cc2)cc1`
**A:** met

**Q:** Threshold test, EC50 < 10 nM: `CC(=O)OCCNc1c(C(=O)NCc2ccc(F)cc2F)c(=O)n(O)c2ncccc12`
**A:** met

**Q:** Threshold test, EC50 < 10 nM: `CN(C)c1c(C(=O)NCc2ccc(F)cc2F)c(=O)n(O)c2ncccc12`
**A:** not met

**Q:** Threshold test, EC50 < 10 nM: `Nc1c(C(=O)NCc2ccc(F)cc2F)c(=O)n(O)c2ncccc12`
**A:** met

Next:
**Q:** Threshold test, EC50 < 10 nM: `O=C(NCc1ccc(F)cc1F)c1c(Nc2ccc3c(c2)Cc2ccccc2-3)c2cccnc2n(O)c1=O`
**A:** not met

**Q:** Threshold test, EC50 < 10 nM: `CCOC(=O)[C@@H]1CCCN1c1c(C(=O)NCc2ccc(F)cc2F)c(=O)n(O)c2ncccc12`
**A:** not met

**Q:** Threshold test, EC50 < 10 nM: `COC(=O)CNc1c(C(=O)NCc2ccc(F)cc2F)c(=O)n(O)c2ncccc12`
**A:** met

**Q:** Threshold test, EC50 < 10 nM: `COC(=O)[C@H](CO)Nc1c(C(=O)NCc2ccc(F)cc2F)c(=O)n(O)c2ncccc12`
**A:** met

**Q:** Threshold test, EC50 < 10 nM: `O=C(NCc1ccc(F)cc1F)c1c(Nc2ccc(-c3ccccc3)cc2)c2cccnc2n(O)c1=O`
**A:** not met

**Q:** Threshold test, EC50 < 10 nM: `O=C(NCc1ccc(F)cc1F)c1c(NCCO)c2cccnc2n(O)c1=O`
**A:** met

**Q:** Threshold test, EC50 < 10 nM: `O=C(NCc1ccc(F)cc1F)c1c(N2CCOCC2)c2cccnc2n(O)c1=O`
**A:** not met

###

# experimental.details: Retention time of the compound by HPLC analysis
# Type: physicochemical
Listing of entries alongside the reported Retention_time.
State the answer as a number, implicitly in min.

Look over these answered cases.
**Q:** Any idea what its Retention_time is? The molecule is `COC(=O)CNc1c(C(=O)NCc2ccc(F)cc2F)c(=O)n(O)c2ncccc12`
**A:** 28.4

**Q:** Any idea what its Retention_time is? The molecule is `CNc1c(C(=O)NCc2ccc(F)cc2F)c(=O)n(O)c2ncccc12`
**A:** 26.4

**Q:** Any idea what its Retention_time is? The molecule is `CN(C)c1c(C(=O)NCc2ccc(F)cc2F)c(=O)n(O)c2ncccc12`
**A:** 21.6

**Q:** Any idea what its Retention_time is? The molecule is `COC(=O)[C@@H](C)Nc1c(C(=O)NCc2ccc(F)cc2F)c(=O)n(O)c2ncccc12`
**A:** 26.4

**Q:** Any idea what its Retention_time is? The molecule is `COC(=O)[C@H](Nc1c(C(=O)NCc2ccc(F)cc2F)c(=O)n(O)c2ncccc12)c1ccccc1`
**A:** 26.3

**Q:** Any idea what its Retention_time is? The molecule is `Nc1c(C(=O)NCc2ccc(F)cc2F)c(=O)n(O)c2ncccc12`
**A:** 19.5

**Q:** Any idea what its Retention_time is? The molecule is `CC(C)Nc1c(C(=O)NCc2ccc(F)cc2F)c(=O)n(O)c2ncccc12`
**A:** 17

**Q:** Any idea what its Retention_time is? The molecule is `O=C(NCc1ccc(F)cc1F)c1c(Nc2ccc3c(c2)Cc2ccccc2-3)c2cccnc2n(O)c1=O`
**A:** 21.3

**Q:** Any idea what its Retention_time is? The molecule is `O=C(NCc1ccc(F)cc1F)c1c(Nc2ccccc2)c2cccnc2n(O)c1=O`
**A:** 20.2

**Q:** Any idea what its Retention_time is? The molecule is `O=C(NCc1ccc(F)cc1F)c1c(NC2CCCCCC2)c2cccnc2n(O)c1=O`
**A:** 25.8

Next:
**Q:** Any idea what its Retention_time is? The molecule is `COC(=O)[C@@H](Nc1c(C(=O)NCc2ccc(F)cc2F)c(=O)n(O)c2ncccc12)c1ccccc1`
**A:** 22.6

**Q:** Any idea what its Retention_time is? The molecule is `N#Cc1ccc(-c2ccc(Nc3c(C(=O)NCc4ccc(F)cc4F)c(=O)n(O)c4ncccc34)cc2)cc1`
**A:** 22.3
